- testedOn: USP7 (Homo sapiens)
- Construct: His tag (from pFastBac-HT vector) (N); made in house; host or cells: insect cells (Sf9 or High Five), baculovirus
- testDetails: USP7 activity assay
- Type: biochemical
pIC50: −log10 of the molar value.

- molecule: "N#Cc1nc2c(nc1C#N)C(=O)c1ccccc1C2=O [Example 20]"
  boundSign: "<"
  pIC50: 4.00
- molecule: "C=CCON=C1c2ccccc2-c2nc(C#N)c(C#N)nc21 (mixture of isomers) [Example 13b]"
  boundSign: "<"
  pIC50: 4.00
- molecule: "COCCON=C1c2ccccc2-c2nc(C(N)=O)c(C#N)nc21 [Example 34c]"
  boundSign: "="
  pIC50: 5.54
- molecule: "N#Cc1nc2c(nc1C(N)=O)-c1ccccc1C2=O [Example 36]"
  boundSign: "="
  pIC50: 5.90
- molecule: "N#Cc1nc2c(nc1C#N)-c1ccccc1C2=NOCCOc1ccccc1 [Example 27a]"
  boundSign: "<"
  pIC50: 4.00
- molecule: "CCON=C1c2ccccc2-c2nc(C(N)=O)c(C#N)nc21 [Example 34b]"
  boundSign: "="
  pIC50: 5.60
- molecule: "N#Cc1nc2c(nc1CC(N)=O)-c1ccccc1C2=O [Example 26]"
  boundSign: "<"
  pIC50: 4.00
- molecule: "N#Cc1nc2c(nc1C(N)=O)-c1ccccc1/C2=N\\OCC(=O)NCC(=O)O [Example 41]"
  boundSign: "="
  pIC50: 5.37
- molecule: "N#Cc1nc2c(nc1C#N)-c1ccc(Cl)cc1C2=NNC(N)=O [Example 43]"
  boundSign: "<"
  pIC50: 4.00

###

- testedOn: USP7 (Homo sapiens, UniProt Q93009)
- Construct: His tag (from pFastBac-HT vector) (N); made in house; host or cells: insect cells (Sf9 or High Five), baculovirus
- Sequence (Q93009 whole entry): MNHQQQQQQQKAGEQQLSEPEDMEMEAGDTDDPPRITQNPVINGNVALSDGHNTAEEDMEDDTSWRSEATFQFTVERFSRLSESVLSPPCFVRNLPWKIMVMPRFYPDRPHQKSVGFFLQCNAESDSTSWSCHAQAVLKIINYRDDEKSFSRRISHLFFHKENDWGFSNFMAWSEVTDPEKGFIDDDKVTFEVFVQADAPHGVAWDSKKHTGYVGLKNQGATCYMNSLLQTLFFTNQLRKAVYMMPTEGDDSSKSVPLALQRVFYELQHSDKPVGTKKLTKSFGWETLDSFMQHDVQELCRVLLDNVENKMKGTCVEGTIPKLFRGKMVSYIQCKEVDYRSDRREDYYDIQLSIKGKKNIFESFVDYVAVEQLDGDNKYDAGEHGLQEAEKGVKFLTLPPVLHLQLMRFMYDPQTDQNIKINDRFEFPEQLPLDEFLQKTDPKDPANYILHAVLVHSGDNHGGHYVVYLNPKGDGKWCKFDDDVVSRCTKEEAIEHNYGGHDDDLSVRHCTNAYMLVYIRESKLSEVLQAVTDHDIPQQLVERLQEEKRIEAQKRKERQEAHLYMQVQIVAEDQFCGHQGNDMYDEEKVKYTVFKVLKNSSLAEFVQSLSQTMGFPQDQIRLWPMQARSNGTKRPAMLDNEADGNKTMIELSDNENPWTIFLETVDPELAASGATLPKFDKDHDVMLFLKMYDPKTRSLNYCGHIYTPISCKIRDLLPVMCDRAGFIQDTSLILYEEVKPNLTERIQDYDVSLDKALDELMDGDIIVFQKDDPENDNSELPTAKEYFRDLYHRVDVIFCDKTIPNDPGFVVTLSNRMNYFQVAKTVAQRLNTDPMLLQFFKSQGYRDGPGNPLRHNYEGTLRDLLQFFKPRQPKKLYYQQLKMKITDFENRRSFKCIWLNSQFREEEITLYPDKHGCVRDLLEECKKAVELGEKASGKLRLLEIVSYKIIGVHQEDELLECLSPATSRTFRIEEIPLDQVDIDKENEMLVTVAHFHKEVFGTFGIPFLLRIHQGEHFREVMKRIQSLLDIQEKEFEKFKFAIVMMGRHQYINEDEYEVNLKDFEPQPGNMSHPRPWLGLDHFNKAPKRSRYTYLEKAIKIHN
- testDetails: USP7 activity assay
- Assay type: biochemical
- conditionDescription: 400 nM Ub-AMC, 152 pM enzyme, 30 min pre-incubation at 25° C., 60 min at 37° C.; sigmoidal fit; read-out: USP 7 (inhibition of cysteine protease activity)

- compound: "N#CNc1nc2c(nc1C#N)C(=O)c1ccccc1-2"
  IC50: "> 100 µM"
- compound: "N#Cc1nc2c(nc1C(N)=O)-c1ccccc1/C2=N\\O [Example 11]"
  IC50: "13 µM"
- compound: "CCON=C1c2ccccc2-c2nc(C#N)c(C#N)nc21 (mixture of isomers) [Example 13d]"
  IC50: "> 100 µM"
- compound: "Cc1c(F)ccc2c1C(=O)c1nc(C#N)c(C#N)nc1-2"
  IC50: "2.22 µM"
- compound: "COc1ccc(OC)c2c1C(=O)c1nc(C#N)c(C#N)nc1-2 [Example 17f]"
  IC50: "12.7 µM"
- compound: "N#Cc1nc2c(nc1C#N)-c1ccc(Cl)cc1C2=O [Example 17g]"
  IC50: "0.53 µM"
- compound: "CCSc1nc2c(nc1C#N)C(=O)c1ccccc1-2"
  IC50: "> 100 µM"
- compound: "N#Cc1nc2c(nc1N)-c1ccccc1C2=O"
  IC50: "> 100 µM"
- compound: "COc1nc2c(nc1C#N)C(=O)c1ccccc1-2"
  IC50: "> 100 µM"
- compound: "N#Cc1nc2c(nc1C#N)-c1ccc(F)cc1C2=O [Example 17h]"
  IC50: "4.3 µM"
- compound: "N#Cc1nc2c(nc1C#N)-c1ccccc1C2=NO"
  IC50: "> 100 µM"
- compound: "CCOC(=O)CNC(=O)CO/N=C1\\c2ccccc2-c2nc(C(N)=O)c(C#N)nc21"
  IC50: "2.8 µM"
- compound: "CN(C)c1nc2c(nc1C#N)C(=O)c1ccccc1-2"
  IC50: "> 100 µM"
- compound: "Cc1cccc2c1C(=O)c1nc(C#N)c(C#N)nc1-2 [Example 17c]"
  IC50: "> 100 µM"
- compound: "COCCOc1nc2c(nc1C#N)C(=O)c1ccccc1-2"
  IC50: "> 100 µM"
- compound: "N#Cc1nc2sc3ccccc3c2nc1C#N"
  IC50: "> 100 µM"
- compound: "N#Cc1nc2c(nc1N1CCC(F)(F)CC1)-c1ccccc1C2=O"
  IC50: "> 100 µM"
- compound: "COc1ccc2c(c1)-c1nc(C#N)c(C#N)nc1C2=O [Example 17a]"
  IC50: "> 100 µM"
- compound: "N#Cc1nc2c(nc1C#N)-c1ccccc1/C2=N/Oc1ccccc1 [Example 13e]"
  IC50: "> 100 µM"
- compound: "Cc1cccc2c1Cc1nc(C#N)c(C#N)nc1-2 [Example 16c]"
  IC50: "> 100 µM"
- compound: "N#Cc1nc2c(nc1C#N)-c1ccccc1C2=O"
  IC50: "3.5 µM"

###

IC50 reference
- testedOn: Uch-L3 (Homo sapiens, UniProt P15374)
- Sequence (P15374 whole entry, species assumed): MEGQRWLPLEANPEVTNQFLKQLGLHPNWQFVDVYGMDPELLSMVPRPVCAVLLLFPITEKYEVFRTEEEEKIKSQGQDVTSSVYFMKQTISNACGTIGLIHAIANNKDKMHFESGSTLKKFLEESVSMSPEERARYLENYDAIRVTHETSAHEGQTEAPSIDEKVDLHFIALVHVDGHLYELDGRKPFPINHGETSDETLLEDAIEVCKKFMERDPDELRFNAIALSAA

- compound: "N#Cc1nc2c(nc1C(N)=O)-c1ccccc1/C2=N\\O [Example 11]"
  IC50: "0.6 µM"
- compound: "N#Cc1nc2c(nc1C#N)-c1ccccc1C2=NO"
  IC50: "1.3 µM"
- compound: "Cc1c(F)ccc2c1C(=O)c1nc(C#N)c(C#N)nc1-2"
  IC50: "0.339 µM"
- compound: "CON=C1c2ccccc2-c2nc(C(N)=O)c(C#N)nc21 [Example 34d]"
  IC50: "0.037 µM"
- compound: "N#Cc1nc2c(nc1N1CCC(F)(F)CC1)-c1ccccc1C2=O"
  IC50: "> 100 µM"
- compound: "COCCOc1nc2c(nc1C#N)C(=O)c1ccccc1-2"
  IC50: "24 µM"
- compound: "CCOC(=O)CO/N=C1\\c2ccccc2-c2nc(C(N)=O)c(C#N)nc21"
  IC50: "0.393 µM"
- compound: "COCCON=C1c2ccccc2-c2nc(C(N)=O)c(C#N)nc21 [Example 34c]"
  IC50: "0.109 µM"
- compound: "N#Cc1nc2c(nc1C(N)=O)-c1ccccc1C2=O"
  IC50: "0.178 µM"
- compound: "CCON=C1c2ccccc2-c2nc(C#N)c(C#N)nc21 (mixture of isomers) [Example 13d]"
  IC50: "1.3 µM"
- compound: "COc1nc2c(nc1C#N)C(=O)c1ccccc1-2"
  IC50: "13 µM"
- compound: "N#Cc1nc2c(nc1C#N)-c1ccccc1C2=Nc1ccccc1 (mixture of isomers)"
  IC50: "0.39 µM"
- compound: "CN(C)c1nc2c(nc1C#N)C(=O)c1ccccc1-2"
  IC50: "> 100 µM"
- compound: "Cc1ccc2c(c1)-c1nc(C#N)c(C#N)nc1C2=O [Example 17e]"
  IC50: "2.1 µM"
- compound: "N#Cc1nc2c(nc1C(N)=O)-c1ccccc1/C2=N\\OCC(=O)NCC(=O)O"
  IC50: "0.328 µM"
- compound: "N#Cc1nc2c(nc1C#N)-c1ccccc1C2=O"
  IC50: "0.76 µM"
- compound: "CCON=C1c2ccccc2-c2nc(C(N)=O)c(C#N)nc21 [Example 34b]"
  IC50: "0.099 µM"
- compound: "N#Cc1nc2c(nc1C#N)C1(OCCO1)c1ccccc1-2"
  IC50: "20 µM"
- compound: "CCc1ccc2c(c1)-c1nc(C#N)c(C#N)nc1C2=O"
  IC50: "0.258 µM"
- compound: "N#CNc1nc2c(nc1C#N)C(=O)c1ccccc1-2"
  IC50: "> 100 µM"

###

pIC50: −log10 of the molar value.
Record type: pIC50 measurement. Applies to: Cathepsin B (Homo sapiens)

- molecule: "N#Cc1nc2c(nc1C#N)-c1ccc(F)cc1C2=O [Example 17h]"
  pIC50: 5.22
- molecule: "N#CNc1nc2c(nc1C#N)C(=O)c1ccccc1-2"
  pIC50: "< 4.00"
- molecule: "N#Cc1nc2c(nc1C#N)-c1ccc(Cl)cc1C2=NOCCOc1ccccc1 [Example 27b]"
  pIC50: "< 4.00"
- molecule: "N#Cc1nc2c(nc1C#N)-c1ccccc1C2=NOCc1ccccc1 (mixture of isomers) [Example 13C]"
  pIC50: "< 4.00"

###

Item-by-item account of IC50
- testedOn: USP7 (Homo sapiens)
- Construct: His tag (from pFastBac-HT vector) (N); made in house; host or cells: insect cells (Sf9 or High Five), baculovirus
- testDetails: USP7 activity assay
- Type: biochemical
- conditionDescription: 400 nM Ub-AMC, 152 pM enzyme, 30 min pre-incubation at 25° C., 60 min at 37° C.; sigmoidal fit; read-out: USP 7 (inhibition of cysteine protease activity)

- molecule: "CCOC(=O)CO/N=C1\\c2ccccc2-c2nc(C(N)=O)c(C#N)nc21"
  endpointUnit: "µM"
  boundSign: "="
  IC50: 2.33
- molecule: "COc1ccc2c(c1)C(=O)c1nc(C#N)c(C#N)nc1-2 [Example 17i]"
  endpointUnit: "µM"
  boundSign: ">"
  IC50: 100
- molecule: "N#Cc1nc2c(nc1Cl)-c1ccccc1C2=O"
  endpointUnit: "µM"
  boundSign: ">"
  IC50: 100
- molecule: "N#Cc1nc2c(nc1C#N)-c1ccccc1C2=NOCc1ccccc1 (mixture of isomers) [Example 13C]"
  endpointUnit: "µM"
  boundSign: ">"
  IC50: 100
- molecule: "COc1cc2c(cc1OC)-c1nc(C#N)c(C#N)nc1C2=O [Example 17b]"
  endpointUnit: "µM"
  boundSign: "="
  IC50: 10.2
- molecule: "COc1ccc2c(c1OC)C(=O)c1nc(C#N)c(C#N)nc1-2 [Example 17d]"
  endpointUnit: "µM"
  boundSign: "="
  IC50: 18
- molecule: "N#Cc1nc2c(nc1C#N)-c1ccc(O)cc1C2=O [Example 17j]"
  endpointUnit: "µM"
  boundSign: "="
  IC50: 66
- molecule: "N#Cc1nc2c(nc1C#N)-c1ccccc1C2=Nc1ccccc1 (mixture of isomers)"
  endpointUnit: "µM"
  boundSign: "="
  IC50: 4.1
- molecule: "Cc1ccc2c(c1)-c1nc(C#N)c(C#N)nc1C2=O [Example 17e]"
  endpointUnit: "µM"
  boundSign: "="
  IC50: 7.2
- molecule: "N#Cc1nc2c(nc1O)-c1ccccc1C2=O"
  endpointUnit: "µM"
  boundSign: "="
  IC50: 21.8
- molecule: "N#Cc1nc2c(nc1C(N)=O)-c1ccccc1/C2=N\\O [Example 33]"
  endpointUnit: "µM"
  boundSign: "="
  IC50: 13
